# Tested on: Danio rerio larvae (5 dpf)
# experiment_notes: optomotor response to red moving lines, difference vs DMSO (percentage points (treated minus DMSO)); higher = more of the behaviour than the DMSO vehicle control
# condition_details: 10 µM; exposure time: 3 h pre-incubation + 3 h imaging
Where a name gives a salt, the structure may show the parent alone.
Please respond with reported optomotor response to red moving lines for every item in the list.
Answers are plain numbers.

Use these answered entries as a reference point.
>>> measured_result("CC(C)C[C@H]1C(=O)N2CCC[C@H]2[C@]2(O)O[C@](NC(=O)[C@@H]3C=C4c5cccc6[nH]c(Br)c(c56)C[C@H]4N(C)C3)(C(C)C)C(=O)N12 [Bromocriptine mesylate]")
-29
>>> measured_result("N[C@@H]1C[C@H]1c1ccccc1 [Tranylcypromine hydrochloride]")
12.9
>>> measured_result("CN1C[C@H](C(=O)N[C@]2(C)O[C@@]3(O)[C@@H]4CCCN4C(=O)[C@H](Cc4ccccc4)N3C2=O)C[C@@H]2c3cccc4[nH]cc(c34)C[C@H]21 [Dihydroergotamine mesylate]")
11.5
>>> measured_result("C=C1C[C@@H]2[C@H](CC[C@]3(C)C(=O)CC[C@@H]23)[C@@]2(C)C=CC(=O)C=C12")
6.78
>>> measured_result("CC(O)(CS(=O)(=O)c1ccc(F)cc1)C(=O)Nc1ccc(C#N)c(C(F)(F)F)c1 (stereo unspecified) [Bicalutamide]")
-10.4

We next turn to a different compound, shown below.
Any idea what optomotor response to red moving lines was measured for COc1ccc(C(CN(C)C)C2(O)CCCCC2)cc1 (stereo unspecified) [Venlafaxine hydrochloride] ? 18.8

---

Please respond with reported habituation to 1-s acoustic pulses for every item in the list.
# Tested on: Danio rerio larvae (5 dpf)
# experiment_notes: habituation to 1-s acoustic pulses, difference vs DMSO (percentage points (treated minus DMSO)); higher = more of the behaviour than the DMSO vehicle control
# condition_details: 10 µM; exposure time: 3 h pre-incubation + 3 h imaging
Where a name gives a salt, the structure may show the parent alone.
Give bare numbers.

>>> measured_result("CN1C[C@H](C(=O)N[C@]2(C)O[C@@]3(O)[C@@H]4CCCN4C(=O)[C@H](Cc4ccccc4)N3C2=O)C[C@@H]2c3cccc4[nH]cc(c34)C[C@H]21 [Dihydroergotamine mesylate]")
1.85
>>> measured_result("CC(O)(CS(=O)(=O)c1ccc(F)cc1)C(=O)Nc1ccc(C#N)c(C(F)(F)F)c1 (centres undefined) [Bicalutamide]")
-5.47

Give measured habituation to 1-s acoustic pulses for every item shown.
1. CCN(C)C(=O)Oc1cccc([C@H](C)N(C)C)c1 [Rivastigmine tartrate]
2. C=C1C[C@@H]2[C@H](CC[C@]3(C)C(=O)CC[C@@H]23)[C@@]2(C)C=CC(=O)C=C12

1. -1.77
2. -0.223

---

# Test system: Danio rerio larvae (5 dpf)
# experiment_notes: optomotor response to green moving lines, difference vs DMSO (percentage points (treated minus DMSO)); higher = more of the behaviour than the DMSO vehicle control
# condition_details: 10 µM; exposure time: 3 h pre-incubation + 3 h imaging
Structures can show the parent of a compound that is named as a salt.
# if value of optomotor response to green moving lines reaches -8, tag True; if it stays below, tag False

Consider the worked cases shown below.
>>> class("CC(O)(CS(=O)(=O)c1ccc(F)cc1)C(=O)Nc1ccc(C#N)c(C(F)(F)F)c1 (stereo not drawn) [Bicalutamide]")
"True"
>>> class("N[C@@H]1C[C@H]1c1ccccc1 [Tranylcypromine hydrochloride]")
"True"
>>> class("CN1C[C@H](C(=O)N[C@]2(C)O[C@@]3(O)[C@@H]4CCCN4C(=O)[C@H](Cc4ccccc4)N3C2=O)C[C@@H]2c3cccc4[nH]cc(c34)C[C@H]21 [Dihydroergotamine mesylate]")
"True"

Evaluate CC(C)C[C@H]1C(=O)N2CCC[C@H]2[C@]2(O)O[C@](NC(=O)[C@@H]3C=C4c5cccc6[nH]c(Br)c(c56)C[C@H]4N(C)C3)(C(C)C)C(=O)N12 [Bromocriptine mesylate] : optomotor response to green moving lines at minimum -8? False

Evaluate C=CCN1C[C@H](C(=O)N(CCCN(C)C)C(=O)NCC)C[C@@H]2c3cccc4[nH]cc(c34)C[C@H]21 [Cabergoline] : optomotor response to green moving lines at minimum -8? False

Evaluate CC[C@@H](C(N)=O)N1CCCC1=O [Levetiracetam] : optomotor response to green moving lines at minimum -8? True

Evaluate O=c1[nH]c2ccccc2n1C1CCN(CCCC(c2ccc(F)cc2)c2ccc(F)cc2)CC1 [Pimozide] : optomotor response to green moving lines at minimum -8? False

---

# System: Danio rerio larvae (5 dpf)
# experiment_notes: optomotor response to blue moving lines, difference vs DMSO (percentage points (treated minus DMSO)); higher = more of the behaviour than the DMSO vehicle control
# condition_details: 10 µM; exposure time: 3 h pre-incubation + 3 h imaging
Counter-ions that a name gives are not always drawn.
Please respond with reported optomotor response to blue moving lines for every item in the list.
One number for each entry.

Use these answered entries as a reference point.
>>> measured_result("CC(C)C[C@H]1C(=O)N2CCC[C@H]2[C@]2(O)O[C@](NC(=O)[C@@H]3C=C4c5cccc6[nH]c(Br)c(c56)C[C@H]4N(C)C3)(C(C)C)C(=O)N12 [Bromocriptine mesylate]")
-29.3
>>> measured_result("N[C@@H]1C[C@H]1c1ccccc1 [Tranylcypromine hydrochloride]")
13.5
>>> measured_result("C=C1C[C@@H]2[C@H](CC[C@]3(C)C(=O)CC[C@@H]23)[C@@]2(C)C=CC(=O)C=C12")
-2.19

We next turn to a different compound, shown below.
Any idea what optomotor response to blue moving lines was measured for `CC[C@@H](C(N)=O)N1CCCC1=O` ? 6.19

---

# Test system: Danio rerio larvae (5 dpf)
# experiment_notes: optomotor response to fast red moving lines, difference vs DMSO (percentage points (treated minus DMSO)); higher = more of the behaviour than the DMSO vehicle control
# condition_details: 10 µM; exposure time: 3 h pre-incubation + 3 h imaging
Structures can show the parent of a compound that is named as a salt.
measurement_name: optomotor response
Numbers only.

>>> measured_result("CCN(C)C(=O)Oc1cccc([C@H](C)N(C)C)c1 [Rivastigmine tartrate]")
-8.58

Give measured optomotor response for every item shown.
1. O=c1[nH]c2ccccc2n1C1CCN(CCCC(c2ccc(F)cc2)c2ccc(F)cc2)CC1 [Pimozide]
2. COc1ccc(C(CN(C)C)C2(O)CCCCC2)cc1 (stereo not drawn) [Venlafaxine hydrochloride]

1: -34.3; 2: 7.81

---

# System: Danio rerio larvae (5 dpf)
# experiment_notes: excitability to 1-s acoustic pulses, difference vs DMSO (percentage points (treated minus DMSO)); higher = more of the behaviour than the DMSO vehicle control
# condition_details: 10 µM; exposure time: 3 h pre-incubation + 3 h imaging
Structures can show the parent of a compound that is named as a salt.
Please respond with reported excitability to 1-s acoustic pulses for every item in the list.
Give bare numbers.

>>> measured_result("COc1ccc(C(CN(C)C)C2(O)CCCCC2)cc1 (configuration not stated) [Venlafaxine hydrochloride]")
8.33
>>> measured_result("CC[C@@H](C(N)=O)N1CCCC1=O")
1.84

Give measured excitability to 1-s acoustic pulses for every item shown.
1. CCN(C)C(=O)Oc1cccc([C@H](C)N(C)C)c1 [Rivastigmine tartrate]
2. O=c1[nH]c2ccccc2n1C1CCN(CCCC(c2ccc(F)cc2)c2ccc(F)cc2)CC1 [Pimozide]
3. CC(O)(CS(=O)(=O)c1ccc(F)cc1)C(=O)Nc1ccc(C#N)c(C(F)(F)F)c1 (configuration not stated) [Bicalutamide]
4. CC(C)C[C@H]1C(=O)N2CCC[C@H]2[C@]2(O)O[C@](NC(=O)[C@@H]3C=C4c5cccc6[nH]c(Br)c(c56)C[C@H]4N(C)C3)(C(C)C)C(=O)N12 [Bromocriptine mesylate]
5. CN1C[C@H](C(=O)N[C@]2(C)O[C@@]3(O)[C@@H]4CCCN4C(=O)[C@H](Cc4ccccc4)N3C2=O)C[C@@H]2c3cccc4[nH]cc(c34)C[C@H]21 [Dihydroergotamine mesylate]

[2.04, -3.54, 3.69, 17.6, 1.17]
